# AC50 annotations
- tested.system: UniProt:P30613
- assay.protocol: PKR WT enzymatic AC50 assay
- Format: biochemical
- conditions.used: wild type PKR
measured.endpoint: AC50

compound	measured.endpoint	result
O=C(c1ccc(NS(=O)(=O)c2ccc(F)c3cccnc23)c(F)c1)N1CCC(O)(c2cccc(F)c2F)CC1 [Compound 277]	AC50	0.101 to 1 µM
O=C(c1ccc(NS(=O)(=O)c2cccc3nccnc23)cc1)N1CCC(O)(CCC(F)(F)F)CC1 [Compound 221]	AC50	< 0.1 µM
Nc1nc2c(S(=O)(=O)Nc3ccc(C(=O)N4CCC(O)(CCC(F)(F)F)CC4)cc3)cccc2s1 [Compound 430]	AC50	< 0.1 µM
O=C(c1cc(F)c(NS(=O)(=O)c2cccc3cccnc23)cc1F)N1CCC(O)(c2ccccc2)CC1 [Compound 290]	AC50	0.101 to 1 µM
CC(C)CC1(O)CCN(C(=O)c2ccc(NS(=O)(=O)c3cccc4[nH]c(=O)cnc34)cc2)CC1 [Compound 438]	AC50	1.01 to 10 µM
O=C(c1ccc(NS(=O)(=O)c2ccccc2C(F)(F)F)cc1)N1CCC(O)(Cc2ccccc2)CC1 [Compound 297]	AC50	1.01 to 10 µM
Cc1nc2c(S(=O)(=O)Nc3ccc(C(=O)N4CCC(O)(c5ccccc5Cl)CC4)cc3)cccc2s1 [Compound 293]	AC50	0.101 to 1 µM

* * *

- tested.system: PKR WT (Homo sapiens)
- Sequence (P30613 whole entry): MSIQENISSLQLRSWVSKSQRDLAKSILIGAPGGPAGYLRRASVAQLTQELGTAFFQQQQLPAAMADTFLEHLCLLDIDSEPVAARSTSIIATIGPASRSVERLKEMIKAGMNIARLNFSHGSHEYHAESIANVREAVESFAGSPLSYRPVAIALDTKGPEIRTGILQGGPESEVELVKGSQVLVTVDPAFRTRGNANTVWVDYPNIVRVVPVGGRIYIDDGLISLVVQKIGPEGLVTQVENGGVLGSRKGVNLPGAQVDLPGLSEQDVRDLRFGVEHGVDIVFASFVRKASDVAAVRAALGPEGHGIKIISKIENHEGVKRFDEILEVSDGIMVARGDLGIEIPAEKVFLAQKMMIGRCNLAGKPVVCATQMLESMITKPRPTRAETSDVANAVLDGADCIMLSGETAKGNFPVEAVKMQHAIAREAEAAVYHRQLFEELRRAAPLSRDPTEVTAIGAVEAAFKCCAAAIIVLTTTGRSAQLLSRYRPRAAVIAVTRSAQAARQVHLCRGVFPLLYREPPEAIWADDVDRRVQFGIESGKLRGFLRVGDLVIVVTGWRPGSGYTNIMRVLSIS
- assay.protocol: PKR WT cell based AC50 assay
- conditions.used: wild type PKR
# AC50 annotations

compound	AC50
O=C(c1ccc(NS(=O)(=O)c2cccc3cccnc23)cc1)N1CCC(O)(Cc2ccccc2F)CC1	< 100 nM
Cc1ccccc1CC1(O)CCN(C(=O)c2ccc(NS(=O)(=O)c3cccc4cccnc34)cc2)CC1	< 100 nM
O=C(c1ccc(NS(=O)(=O)c2cccc3cccnc23)cc1OC(F)F)N1CCC(O)(c2ccccc2Cl)CC1	< 100 nM
Cc1ccc(C2(O)CCN(C(=O)c3ccc(NS(=O)(=O)c4cccc5cccnc45)cc3)CC2)c(Cl)c1	101 to 1000 nM

* * *

# AC50 annotations
- tested.system: PKR R510Q (Homo sapiens, UniProt P30613, R510Q)
- Sequence (P30613 whole entry R510Q): as the sequence (P30613 whole entry) above, with R510Q counted along it
- assay.protocol: PKR Mutant Assay, AC50 against PKR R510Q
- Format: biochemical
- conditions.used: mutant PKR R510Q enzyme
- Method: • PKR or PKR mutant enzyme solution was diluted in assay buffer. • 2 μL of test compound was added into wells first, and then 180 μL reaction mix was added. • Reactions mixture with test compound was assembled except for ADP, and plates were stored for 60 minutes at room temperature. • 20 uL ADP was added to start reaction at room temperature and reaction progress was measured as changes in absorbance at 340 nm wavelength at room temperature. […]
measured.endpoint: AC50

compound	tested.system	measured.endpoint	result
O=C(c1ccc(NS(=O)(=O)c2cccc3ccnnc23)cc1)N1CCC(O)(c2ccccc2Cl)CC1 [Compound 313]	PKR R510Q (Homo sapiens, UniProt P30613, R510Q)	AC50	> 10 µM
Cc1cc(C(=O)N2CCC(O)(Cc3ccccc3)CC2)ccc1NS(=O)(=O)c1cccc2cccnc12 [Compound 101]	PKR R510Q (Homo sapiens, UniProt P30613, R510Q)	AC50	< 0.1 µM
Cc1cccc(C2(O)CCN(C(=O)c3ccc(NS(=O)(=O)c4cccc5cccnc45)cc3)CC2)n1 [Compound 265]	PKR R510Q (Homo sapiens, UniProt P30613, R510Q)	AC50	1.01 to 10 µM
O=C(c1ccc(NS(=O)(=O)c2ccc(F)c3scnc23)cc1)N1CCC(O)(c2ccccc2Cl)CC1 [Compound 378]	PKR R510Q (Homo sapiens, UniProt P30613, R510Q)	AC50	1.01 to 10 µM
Nc1c(F)ccc(S(=O)(=O)Nc2ccc(C(=O)N3CCC(O)(c4ccccc4Cl)CC3)cc2)c1N [Compound 256]	PKR R510Q (Homo sapiens, UniProt P30613, R510Q)	AC50	1.01 to 10 µM
O=C(c1ccc(NS(=O)(=O)c2cccc3cccnc23)cc1)N1CCC(O)(c2cccc(F)c2)CC1 [Compound 142]	PKR R510Q (Homo sapiens, UniProt P30613, R510Q)	AC50	0.101 to 1 µM
CC(C)CC1(O)CCN(C(=O)c2ccc(NS(=O)(=O)Cc3ccccn3)cc2)CC1 [Compound 324]	PKR R510Q (Homo sapiens, UniProt P30613, R510Q)	AC50	> 10 µM

* * *

- tested.system: PKR R510Q (Homo sapiens, UniProt P30613, R510Q)
- assay.protocol: PKR Mutant Assay, AC50 against PKR R510Q
- Type: biochemical
- conditions.used: mutant PKR R510Q enzyme
# AC50 annotations

compound	tested.system	AC50
COc1cccnc1C1(O)CCN(C(=O)c2ccc(NS(=O)(=O)c3cccc4cccnc34)cc2)CC1	PKR R510Q (Homo sapiens, UniProt P30613, R510Q)	> 10000 nM
O=C(c1ccc(NS(=O)(=O)c2cccc3nsnc23)cc1)N1CCC(O)(c2ccccc2)CC1	PKR R510Q (Homo sapiens, UniProt P30613, R510Q)	> 10000 nM
CC(CC1(O)CCN(C(=O)c2ccc(NS(=O)(=O)c3cccc4c(O)ncnc34)cc2)CC1)C(F)(F)F (stereo not drawn)	PKR R510Q (Homo sapiens, UniProt P30613, R510Q)	< 100 nM
N#Cc1cc(C(=O)N2CCC(O)(c3ccccc3Cl)CC2)ccc1NS(=O)(=O)c1cccc2cccnc12	PKR R510Q (Homo sapiens, UniProt P30613, R510Q)	1010 to 10000 nM
CC(C)(C)CC1(O)CCN(C(=O)c2ccc(NS(=O)(=O)c3cccc4cccnc34)cc2)CC1	PKR R510Q (Homo sapiens, UniProt P30613, R510Q)	< 100 nM
CC(C)CC1(O)CCN(C(=O)c2ccc(NS(=O)(=O)c3cccc4sc(N)nc34)cc2)CC1	PKR R510Q (Homo sapiens, UniProt P30613, R510Q)	< 100 nM
O=C(c1ccc(NS(=O)(=O)c2cccc3cccnc23)c(F)c1F)N1CCC(O)(c2ccccc2)CC1	PKR R510Q (Homo sapiens, UniProt P30613, R510Q)	> 10000 nM
Cc1ccc(C2(O)CCN(C(=O)c3ccc(NS(=O)(=O)c4cccc5cccnc45)cc3)CC2)c(Cl)c1	PKR R510Q (Homo sapiens, UniProt P30613, R510Q)	101 to 1000 nM
CC1(CC2(O)CCN(C(=O)c3ccc(NS(=O)(=O)c4cccc5scnc45)cc3)CC2)CC1	PKR R510Q (Homo sapiens, UniProt P30613, R510Q)	< 100 nM
O=C(c1ccc(NS(=O)(=O)c2cccc3cccnc23)cc1)N1CCC(O)(c2cccc3c2OCCO3)CC1	PKR R510Q (Homo sapiens, UniProt P30613, R510Q)	1010 to 10000 nM
O=C(c1ccc(NS(=O)(=O)c2cc(F)cc3scnc23)cc1)N1CCC(O)(c2ccccc2Cl)CC1	PKR R510Q (Homo sapiens, UniProt P30613, R510Q)	101 to 1000 nM
O=C(c1ccc(NS(=O)(=O)c2cccc3cccnc23)cn1)N1CCC(O)(c2ccccc2)CC1	PKR R510Q (Homo sapiens, UniProt P30613, R510Q)	> 10000 nM
O=C(c1ccc(NS(=O)(=O)c2ccccc2C(F)(F)F)cc1)N1CCC(O)(Cc2ccccc2)CC1	PKR R510Q (Homo sapiens, UniProt P30613, R510Q)	1010 to 10000 nM
CC(C)CC1(O)CCN(C(=O)c2ccc(NS(=O)(=O)c3cc(F)cc4scnc34)cc2)CC1	PKR R510Q (Homo sapiens, UniProt P30613, R510Q)	101 to 1000 nM
O=C(c1ccc(NS(=O)(=O)c2cccc3cccnc23)cc1)N1CCC(O)(c2ncccc2Cl)CC1	PKR R510Q (Homo sapiens, UniProt P30613, R510Q)	101 to 1000 nM

* * *

- tested.system: PKR R510Q (Homo sapiens, UniProt P30613, R510Q)
- assay.protocol: PKR Mutant Assay, AC50 against PKR R510Q
- Format: biochemical
- conditions.used: mutant PKR R510Q enzyme
measured.endpoint: AC50

molecule	result
Cc1ncccc1C1(O)CCN(C(=O)c2ccc(NS(=O)(=O)c3cccc4cccnc34)cc2)CC1 [Compound 147]	0.101 to 1 µM
N#Cc1ccccc1C1(O)CCN(C(=O)c2ccc(NS(=O)(=O)c3cccc4cccnc34)cc2)CC1 [Compound 266]	1.01 to 10 µM
O=C(c1ccc(NS(=O)(=O)c2cccc3cccnc23)cc1)N1CCC(O)(c2ccccc2Cl)CC1 [Compound 122]	< 0.1 µM
CC(C)CC1(O)CCN(C(=O)c2ccc(NS(=O)(=O)c3ccc(F)c4scnc34)cc2)CC1 [Compound 372]	0.101 to 1 µM
O=C(c1ccc(NS(=O)(=O)c2cccc3cccnc23)cc1)N1CCC(O)(Cc2cccnc2)CC1 [Compound 185]	0.101 to 1 µM
CCC1(O)CCN(C(=O)c2ccc(NS(=O)(=O)c3cccc4cccnc34)cc2)CC1 [Compound 267]	1.01 to 10 µM
O=C(c1ccc(NS(=O)(=O)c2cccc3cccnc23)cc1)N1CCC(O)(CC2CC2(F)F)CC1 (stereo not drawn) [Compound 176]	0.101 to 1 µM
O=C(c1ccc(NS(=O)(=O)c2cccc3cccnc23)cc1)N1CCC(O)(c2ncccc2F)CC1 [Compound 148]	0.101 to 1 µM
O=C(c1ccc(NS(=O)(=O)c2ccc(F)c3cccnc23)cc1)N1CCC(O)(c2cccc(F)c2F)CC1 [Compound 227]	0.101 to 1 µM
O=C(c1ccc(N[S+]([O-])c2cccc3cccnc23)cc1)N1CCC(O)(c2ccccc2Cl)CC1 (stereo not drawn) [Compound 311]	> 10 µM
COc1nc(C(=O)N2CCC(O)(c3ccccc3)CC2)ccc1NS(=O)(=O)c1cccc2cccnc12 [Compound 304]	> 10 µM
O=C(c1ccc(NS(=O)(=O)c2ccc(F)c3cccnc23)cc1)N1CCC(O)(c2ccccc2Cl)CC1 [Compound 179]	0.101 to 1 µM
CC1(O)CCN(C(=O)c2ccc(NS(=O)(=O)c3cccc4cccnc34)cc2)CC1 [Compound 296]	> 10 µM
CC(C)CC1(O)CCN(C(=O)c2ccc(NS(=O)(=O)c3ccc(F)c(N)c3N)cc2)CC1 [Compound 254]	0.101 to 1 µM
Cc1cc(C(=O)N2CCC(O)(c3cccc(F)c3F)CC2)ccc1NS(=O)(=O)c1ccc(F)c2cccnc12 [Compound 220]	0.101 to 1 µM
Cc1cc(NS(=O)(=O)c2cccc3cccnc23)ccc1C(=O)N1CCC(O)(c2ccccc2Cl)CC1 [Compound 141]	0.101 to 1 µM
O=C(c1ccc(NS(=O)(=O)c2cccc3cccnc23)cc1)N1CCC(O)(c2ncccc2C(F)(F)F)CC1 [Compound 164]	0.101 to 1 µM
O=C(c1ccc(NS(=O)(=O)c2cccc3cccnc23)cc1)N1CCC(O)(c2ccccc2)CC1 [Compound 156]	0.101 to 1 µM
CC(C)CC1(O)CCN(C(=O)c2ccc(NS(=O)(=O)c3c(F)ccc4ncsc34)cc2)CC1 [Compound 309]	> 10 µM
O=C(c1ccc(NS(=O)(=O)c2cccc3cccnc23)cc1)N1CCC(O)(Cc2ccccc2F)CC1 [Compound 110]	< 0.1 µM
O=C(c1ccc(NS(=O)(=O)c2cccc3nc(F)ccc23)cc1)N1CCC(O)(c2ccccc2Cl)CC1 [Compound 259]	1.01 to 10 µM
Nc1nc2c(S(=O)(=O)Nc3ccc(C(=O)N4CCC(O)(CCC(F)(F)F)CC4)cc3)cccc2s1 [Compound 430]	0.101 to 1 µM
O=C(c1ccc(NS(=O)(=O)c2cccc3ccc(F)nc23)cc1)N1CCC(O)(c2ccccc2Cl)CC1 [Compound 224]	1.01 to 10 µM
O=C(c1ccc(NS(=O)(=O)c2cccc3scnc23)cc1)N1CCC(O)(CCC(F)(F)F)CC1 [Compound 233]	0.101 to 1 µM
O=C(c1ccc(NS(=O)(=O)c2ccc(F)c3scnc23)cc1)N1CCC(O)(c2ccccc2Cl)CC1 [Compound 368]	1.01 to 10 µM
O=C(c1ccc(NS(=O)(=O)c2cccc3nccnc23)cc1)N1CCC(O)(CCC(F)F)CC1 [Compound 230]	0.101 to 1 µM
O=C(c1ccc(NS(=O)(=O)c2cccc3cccnc23)c(F)c1)N1CCC(O)(c2ccccc2Cl)CC1 [Compound 143]	< 0.1 µM
O=C(c1ccc(NS(=O)(=O)c2cccc3cccnc23)cc1)N1CCC(O)(c2ccncc2)CC1 [Compound 206]	1.01 to 10 µM
O=C(c1ccc(NS(=O)(=O)c2cccc3scnc23)cc1)N1CCC(O)(Cc2ccccc2C(F)(F)F)CC1 [Compound 125]	< 0.1 µM
O=C(c1ccc(NS(=O)(=O)c2cccc3cccnc23)cc1)N1CCC(O)(c2cnsc2)CC1 [Compound 377]	0.101 to 1 µM
